test system: Rattus norvegicus; experiment: Biodistribution in liver of immature female rat after 5 hour administration of 3 micro Ci (111 kBq) in the absence of 60 microg estradiol; type: ADME, organism-based; settings: in vivo
Measured ID/g values are reported for all entries that follow.
# number only, unit % dropped from output

Examples with their reported ID/g follow.
# entry smiles, ID/g / %
rows = [
    ("C[C@@H]1Cc2cc(O)c(F)cc2[C@H]2CC[C@@]3(C)[C@@H](CC[C@@]3(O)/C=C\\I)[C@H]12", 2.51),
    ("C[C@@H]1Cc2c(ccc(O)c2F)[C@H]2CC[C@@]3(C)[C@@H](CC[C@@]3(O)/C=C\\I)[C@H]12", 1.36),
    ("CO[C@H]1C[C@@]2(C)[C@@H](CC[C@@]2(O)/C=C/I)[C@@H]2CCc3cc(O)c(F)cc3[C@H]21", 3.11),
]

ID/g for C[C@]12CC[C@@H]3c4cc(F)c(O)cc4CC[C@H]3[C@@H]1CC[C@@]2(O)/C=C\I ?
1.16

What would you report for C[C@@H]1Cc2cc(O)c(F)cc2[C@H]2CC[C@@]3(C)[C@@H](CC[C@@]3(O)/C=C/I)[C@H]12 ?
1.38

What would you report for C[C@]12CC[C@@H]3c4ccc(O)c(F)c4CC[C@H]3[C@@H]1CC[C@@]2(O)/C=C/I ?
1.21

What would you report for C[C@]12CC[C@@H]3c4cc(F)c(O)cc4CC[C@H]3[C@@H]1CC[C@@]2(O)/C=C/I ?
2.12
